- PROCEDURE TEXT: yeast display, Sf9 membrane polyspecificity reagent, FACS + sequencing; frameworks hold sequencing errors

{"QUERY SEQUENCE": "QVQLVESGGGLVQAGGSLRLSGDASGRIFRLYAMGWYRQAPGKEREFVAAISRSGGRTYYADSVKGRFTISRDNAKNTVYLQMNSLKPEDTAVYYCAAVYRQCGDYYSRDYYWGQGTQVTVSS", "polyreactivity (PSR sort gate)": "high polyreactivity"}
{"QUERY SEQUENCE": "QVQLVEAGGGLVQAGGSLRLIFASSGSTLYLYVMVWYRQAPGKESELVDVISSSSGRTYYADSVKGRFTISRDNAKNSVYLQMNSLKPEDTAVYYCAADNYVGYHWYNYWGQGTQVTVSS", "polyreactivity (PSR sort gate)": "high polyreactivity"}
